Test system: SW-620
Experiment: NCI tumour cell line growth inhibition, 48 h
Calls of active or inactive are those of the source. No stated cut-off is given here; in the data, active = GI50 up to about 1.1 µM and inactive = higher. Where a SMILES comes first, the peptide text is derived from it. The star is where a group is joined. Cbz = O=C(OCc1ccccc1)*; OBn = c1ccc(CO*)cc1

| Compound | Measured target | GI50 |
| --- | --- | --- |
| N#Cc1nc(C2OC(COC(=O)c3ccccc3)C(OC(=O)c3ccccc3)C2OC(=O)c2ccccc2)oc1N (stereo not drawn) | SW-620 | 12.1 µM (inactive) |
| CCOC(=O)C(NC(=O)CC)(N1CCN(c2cc3c(cc2F)c(=O)c(C(=O)O)cn3C2CC2)CC1)C(F)(F)F (stereo not drawn) | SW-620 | > 100 µM (inactive) |
| Cc1ccccc1C1CC(c2ccccc2)=NO1 (stereo not drawn) | SW-620 | > 100 µM (inactive) |
| O=C1/C(=C/c2ccc(Cl)cc2)CSC/C1=C\c1ccc(Cl)cc1 | SW-620 | 3.15 µM (inactive) |
| CC(=O)OCC1OC(N2C(c3ccccc3)=CC(c3ccccc3)C(C#N)=C2S)C(OC(C)=O)C(OC(C)=O)C1OC(C)=O (stereo not drawn) | SW-620 | 54.7 µM (inactive) |
| N#Cc1c(NC(=S)Nc2ccccc2)sc2c1CCCC2 | SW-620 | > 100 µM (inactive) |
| O=C1CCC(=O)N2CCCCN12 | SW-620 | > 100 µM (inactive) |
| O=S(=O)(N/N=C/c1ccc(Cl)cc1Cl)c1ccccc1 | SW-620 | 78.9 µM (inactive) |
| Cc1cccc(NC(=O)CC(=O)N2N=C(N3c4ccccc4Sc4ccccc43)CC2c2ccccc2)c1 (stereo not drawn) | SW-620 | > 100 µM (inactive) |
| COC(=O)C(Cc1ccc(O)cc1)NC(=O)C(CC(=O)OCc1ccccc1)NC(=O)OCc1ccccc1 (stereo not drawn) (Cbz-Asp(OBn)-Tyr-OMe; configuration not given here) | SW-620 | 22.4 µM (inactive) |
| N=C(N)SCCSC(=N)N | SW-620 | > 100 µM (inactive) |
| CC(=O)c1ccc(-c2ccc(C(C)=O)s2)s1 | SW-620 | > 100 µM (inactive) |
| Cc1cnc2[nH]c(-c3cccc(F)c3)cc(=O)c2c1 | SW-620 | 0.0252 µM (active) |

meta.source: ChEMBL document CHEMBL1201862
